B1: library; a variant is named by its letters at N, in order (parent)
chain: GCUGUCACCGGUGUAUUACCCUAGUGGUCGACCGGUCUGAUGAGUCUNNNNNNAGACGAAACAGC

# Variants of: B1
# PROCEDURE SUMMARY: normalized RNA/DNA level with ligand (relative to sTRSVctl = 100) (log10 (% of sTRSVctl)); ligand: hypoxanthine (xanthine aptamer); higher = less ribozyme self-cleavage, higher mRNA level
# CONDITION: ligand concentration (+) RNA-Seq: 5 mM, HEK293T, reporter: mCherry (pCS4076), ligand present: yes
METRIC: normalized RNA/DNA level with ligand (log10)
Give bare numbers.

Worked cases, normalized RNA/DNA level with ligand (log10) given:
> print(dat)
                              sequence.chain  value
 1  GCUGUCACCGGUGUAUUACCCUAGUGGUCGACCGGUCUGAUGAGUCUAGCUUUAGACGAAACAGC [AGCUUU]   1.94
 2  GCUGUCACCGGUGUAUUACCCUAGUGGUCGACCGGUCUGAUGAGUCUAUUGCCAGACGAAACAGC [AUUGCC]   1.95
 3  GCUGUCACCGGUGUAUUACCCUAGUGGUCGACCGGUCUGAUGAGUCUCGUUUCAGACGAAACAGC [CGUUUC]   1.95
 4  GCUGUCACCGGUGUAUUACCCUAGUGGUCGACCGGUCUGAUGAGUCUCAUGGCAGACGAAACAGC [CAUGGC]   1.97
 5  GCUGUCACCGGUGUAUUACCCUAGUGGUCGACCGGUCUGAUGAGUCUACCCACAGACGAAACAGC [ACCCAC]   1.92
 6  GCUGUCACCGGUGUAUUACCCUAGUGGUCGACCGGUCUGAUGAGUCUAGCGAGAGACGAAACAGC [AGCGAG]    1.8
 7  GCUGUCACCGGUGUAUUACCCUAGUGGUCGACCGGUCUGAUGAGUCUAGGGUGAGACGAAACAGC [AGGGUG]   1.89
 8  GCUGUCACCGGUGUAUUACCCUAGUGGUCGACCGGUCUGAUGAGUCUACAUAAAGACGAAACAGC [ACAUAA]    1.9
 9  GCUGUCACCGGUGUAUUACCCUAGUGGUCGACCGGUCUGAUGAGUCUUCGGCAAGACGAAACAGC [UCGGCA]   1.99
10  GCUGUCACCGGUGUAUUACCCUAGUGGUCGACCGGUCUGAUGAGUCUUCAACAAGACGAAACAGC [UCAACA]   1.96

For this variant ( GCUGUCACCGGUGUAUUACCCUAGUGGUCGACCGGUCUGAUGAGUCUCUAACCAGACGAAACAGC [CUAACC] ), measured normalized RNA/DNA level with ligand (log10) is 1.91
